Overview of recorded MIC (minimal inhibitory concentration) for various compounds
- System: Streptococcus Group 9960
- experiment.description: standard agar-dilution assay, MIC
- Type: cell-based
I only need the number, thanks.

Examples from the recorded data:
compound="CCC(=O)OCC1C=C(C)C=CC(=O)C(C)CC(CC=O)C(OC2OC(C)C(OC3CC(C)(O)C(OC(=O)CC)C(C)O3)C(N(C)C)C2O)C(C)C(O)CC(=O)OC1CC (stereo not drawn) [Compound 4, 23,4\"-Di-O-Propionyl-DMT]" readout_type="MIC (minimal inhibitory concentration)" result_number=0.5
compound="CCC(=O)OC1C(C)OC(OC2C(C)OC(OC3C(CC=O)CC(C)C(=O)C=CC(C)=CC(C)C(CC)OC(=O)CC(O)C3C)C(OC(C)=O)C2N(C)C)CC1(C)O (stereo not drawn) [Compound 22, 2'-O-Acetyl-4\"-O-Propionyl-DMOT]" readout_type="MIC (minimal inhibitory concentration)" result_number=0.5
compound="CCC(=O)OC1C(C)OC(OC2C(C)OC(OC3C(CC=O)CC(C)C(=O)C=CC(C)=CC(C)C(CC)OC(=O)CC(O)C3C)C(O)C2N(C)C)CC1(C)O (stereo not drawn) [Compound 24, 4\"-O-Propionyl-DMOT]" readout_type="MIC (minimal inhibitory concentration)" result_number=0.5
compound="CCC1OC(=O)CC(O)C(C)C(OC2OC(C)C(OC3CC(C)(O)C(OC(=O)CC(C)C)C(C)O3)C(N(C)C)C2OC(C)=O)C(CC=O)CC(C)C(=O)C=CC(C)=CC1C (stereo not drawn) [Compound 18, 2'-O-Acetyl-4\"-O-Isovaleryl-DMOT]" readout_type="MIC (minimal inhibitory concentration)" result_number=1
compound="CCC(=O)OCC1C=C(C)C=CC(=O)C(C)CC(CC=O)C(OC2OC(C)C(OC3CC(C)(O)C(OC(=O)CC)C(C)O3)C(N(C)C)C2OC(C)=O)C(C)C(O)CC(=O)OC1CC (stereo not drawn) [Compound 3, 2'-O-Acetyl-23,4\"-Di-O-Propionyl-DMT]" readout_type="MIC (minimal inhibitory concentration)" result_number=1

Recorded MIC (minimal inhibitory concentration) for CCC(=O)OC1CC(=O)OC(CC)C(CO)C=C(C)C=CC(=O)C(C)CC(CC=O)C(OC2OC(C)C(OC3CC(C)(O)C(OC(=O)CC)C(C)O3)C(N(C)C)C2O)C1C (stereo not drawn) [Compound 17, 3,4"-Di-O-Propionyl-DMT] , please? 1

----------
- Tested on: Streptococcus pyogenes C203
- experiment.description: standard agar-dilution assay, MIC
- Format: cell-based
Overview of recorded MIC (minimal inhibitory concentration) for various compounds
I only need the number, thanks.

Examples from the recorded data:
compound="CCC(=O)OCC1C=C(C)C=CC(=O)C(C)CC(CC=O)C(OC2OC(C)C(OC3CC(C)(O)C(OC(=O)CC)C(C)O3)C(N(C)C)C2OC(C)=O)C(C)C(OC(=O)CC)CC(=O)OC1CC (stereo not shown)" result_number=0.5
compound="CCC(=O)OC1C(C)OC(OC2C(C)OC(OC3C(CC=O)CC(C)C(=O)C=CC(C)=CC(COC(=O)C(Cl)(Cl)Cl)C(CC)OC(=O)CC(O)C3C)C(OC(C)=O)C2N(C)C)CC1(C)O (stereo not shown)" result_number=0.5
compound="CCC1OC(=O)CC(O)C(C)C(OC2OC(C)C(OC3CC(C)(O)C(OC(C)=O)C(C)O3)C(N(C)C)C2OC(C)=O)C(CC=O)CC(C)C(=O)C=CC(C)=CC1COC(C)=O (stereo not shown)" result_number=0.5

Note: attention shifts to another entry.
Recorded MIC (minimal inhibitory concentration) for CCC1OC(=O)CC(OC(=O)COc2ccccc2)C(C)C(OC2OC(C)C(OC3CC(C)(O)C(O)C(C)O3)C(N(C)C)C2OC(C)=O)C(CC=O)CC(C)C(=O)C=CC(C)=CC1COC(=O)COc1ccccc1 (stereo not shown) , please? 0.125
